Reported reverse-splicing fitness by item:
B1: Azoarcus group I ribozyme (parent)
chain: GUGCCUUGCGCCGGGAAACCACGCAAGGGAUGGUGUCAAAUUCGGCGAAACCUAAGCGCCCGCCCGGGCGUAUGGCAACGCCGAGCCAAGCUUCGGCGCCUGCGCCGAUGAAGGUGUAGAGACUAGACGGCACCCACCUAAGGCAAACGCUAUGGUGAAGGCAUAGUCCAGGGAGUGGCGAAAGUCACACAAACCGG

Variants of: B1
Assay: reverse-splicing fitness (ratio to wild type); higher = more active; in vitro selection; Mg2+ level not given
# respond with the number and nothing more

Below: 5 variants and their reported reverse-splicing fitness.
C82G A111C A120U C150U U176C : 0.0132
C82A A111U A120C C150U C169U : 0.0121
A111U A120G A145G C150G U176G : 0.00598
C82G A111G C150G U176C : 0.0225
C82A A111U A145U C150G C169U U176G : 0.00727

For reference, reported reverse-splicing fitness for C82A A120U C150G U176G stands at 0.00281

For reference, reported reverse-splicing fitness for A120G A145C C150G C169U U176C stands at 0.054

For reference, reported reverse-splicing fitness for C82G A111U A145C U176C stands at 0.224

For reference, reported reverse-splicing fitness for C82G A111U A120C A145U C150G U176G stands at 0.00406

For reference, reported reverse-splicing fitness for C82G A111U A120G A145G C150G C169G U176A stands at 0.0104

For reference, reported reverse-splicing fitness for C82G A111C A145U C150A C169U U176G stands at 0.00816

For reference, reported reverse-splicing fitness for A120C A145G C150G U176C stands at 0.146

For reference, reported reverse-splicing fitness for C82U A111C A120C A145U C150A C169G U176A stands at 0.0132

For reference, reported reverse-splicing fitness for C82A A111G A120C A145C C150A C169U stands at 0.00853

For reference, reported reverse-splicing fitness for C82U A111U A120G C150A C169A U176C stands at 0.0173

For reference, reported reverse-splicing fitness for C82A A111G A120C C150U C169A U176G stands at 0.00635

For reference, reported reverse-splicing fitness for C82U A111G A145C C150A C169G U176G stands at 0.0054

For reference, reported reverse-splicing fitness for C82A A111U A120U A145G C150A C169A U176C stands at 0.00627

For reference, reported reverse-splicing fitness for C82A A111U A120C A145U C150U C169U U176C stands at 0.0137
